# System: Human Oral Mucosa Explant Tissues
# measurement description: Effect of final gel pH on anthocyanin uptake into human oral mucosa explant tissues
# Assay type: in vitro ADME
# experimental parameters: explant sample 011; 10% w/w FBR gel
# Method: Anthocyanin content in sera, saliva, and tissue explants was evaluated by an HPLC-MS assay. The respective samples (sera, saliva or tissue homogenates) were dissolved in 90% solvent A (water plus 1% formic acid) and 10% solvent B (acetonitrile plus 1% formic acid) and then separated on a Symmetry C18 reversed-phase column and analyzed using a Waters 2695 gradient HPLC separation module equipped with a 996 photodiode-array (PDA) UV/visible absorbance detector (Milford, Mass.). […]
measured metric: % change 3.5 to 6.5 (%)

CC1OC(OCC2OC(Oc3cc4c(O)cc(O)cc4[o+]c3-c3ccc(O)c(O)c3)C(OC3OCC(O)C(O)C3O)C(O)C2O)C(O)C(O)C1O (stereo not shown) [cyanidin 3-xylosylrutinoside] | −100
C[C@@H]1O[C@@H](OC[C@H]2O[C@@H](Oc3cc4c(O)cc(O)cc4[o+]c3-c3ccc(O)c(O)c3)[C@H](O)[C@@H](O)[C@@H]2O)[C@H](O)[C@H](O)[C@H]1O [cyanidin 3-rutinoside] | −98.7

[1] OC[C@H]1O[C@@H](Oc2cc3c(O)cc(O)cc3[o+]c2-c2ccc(O)c(O)c2)[C@H](O[C@@H]2OC[C@@H](O)[C@H](O)[C@H]2O)[C@@H](O)[C@@H]1O.[Cl-] [Cyanidin 3-sambubioside, cyanidin 3-sambubioside]
[2] OC[C@H]1O[C@@H](Oc2cc3c(O)cc(O)cc3[o+]c2-c2ccc(O)c(O)c2)[C@H](O)[C@@H](O)[C@@H]1O [cyanidin 3-glucoside]
Query: // which entry has the larger % change 3.5 to 6.5 value, 1 or 2 ? Let me know the label of the one you choose.
Result: 2
